Target: Adenosine receptors; A1 & A3 (Homo sapiens) (UniProt P30542+P0DMS8)
Experiment: Selectivity ratio of Ki for recombinant human adenosine A3 receptor to Ki for recombinant human adenosine A1 receptor
Parameter threshold = 10. Response is True when Ratio Ki meets or exceeds it, else False.

>>> cat("Cc1cc(C)n(C[C@H]2O[C@@H](n3cnc4c(NC5CCCC5)ncnc43)[C@H](O)[C@@H]2O)n1")
"True"
>>> cat("O[C@@H]1[C@H](O)[C@@H](CCl)O[C@H]1n1cnc2c(Nc3ccc(Cl)cc3F)nc(Cl)nc21")
"True"
>>> cat("Cc1cc(C)n(C[C@H]2O[C@@H](n3cnc4c(N[C@@H]5CCOC5)ncnc43)[C@H](O)[C@@H]2O)n1")
"True"
>>> cat("Cc1cc(C)n(C[C@H]2O[C@@H](n3cnc4c(Nc5ccc(Cl)cc5F)nc(Cl)nc43)[C@H](O)[C@@H]2O)n1")
"False"
>>> cat("O[C@@H]1[C@H](O)[C@@H](CCl)O[C@H]1n1cnc2c(N[C@@H]3CCOC3)nc(Cl)nc21")
"True"
>>> cat("O[C@@H]1[C@H](O)[C@@H](CCl)O[C@H]1n1cnc2c(Nc3ccc(Cl)cc3F)ncnc21")
"True"
>>> cat("Cc1cc(C)n(C[C@H]2O[C@@H](n3cnc4c(N[C@@H]5CCOC5)nc(Cl)nc43)[C@H](O)[C@@H]2O)n1")
"False"
>>> cat("Cc1cc(C)n(C[C@H]2O[C@@H](n3cnc4c(NC5CC6CCC5C6)nc(Cl)nc43)[C@H](O)[C@@H]2O)n1 (mixture of isomers)")
"True"

====

pKi values for the compounds below.
Biological target: Adenosine receptor A3 (Homo sapiens, UniProt P0DMS8)
Sequence (P0DMS8 whole entry): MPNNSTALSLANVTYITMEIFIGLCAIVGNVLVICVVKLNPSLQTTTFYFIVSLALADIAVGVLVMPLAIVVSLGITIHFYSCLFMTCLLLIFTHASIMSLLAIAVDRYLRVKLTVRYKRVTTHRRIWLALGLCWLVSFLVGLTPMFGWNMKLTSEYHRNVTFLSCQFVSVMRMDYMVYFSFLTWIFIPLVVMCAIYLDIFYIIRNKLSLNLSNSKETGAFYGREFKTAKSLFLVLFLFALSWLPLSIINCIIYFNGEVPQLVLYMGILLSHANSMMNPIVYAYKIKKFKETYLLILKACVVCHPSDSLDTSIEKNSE
Assay: Displacement of [3H]HEMADO from recombinant human adenosine A3 receptor expressed in CHO cell membranes after 3 hrs
pKi: −log10 of the molar value.
result type: pKi

>>> readout_value("O[C@@H]1[C@H](O)[C@@H](CCl)O[C@H]1n1cnc2c(N[C@@H]3CCOC3)ncnc21")
5.92
>>> readout_value("Cc1cc(C)n(C[C@H]2O[C@@H](n3cnc4c(Nc5ccc(Cl)cc5F)nc(Cl)nc43)[C@H](O)[C@@H]2O)n1")
6.86
>>> readout_value("Cc1cc(C)n(C[C@H]2O[C@@H](n3cnc4c(NC5CCCC5)ncnc43)[C@H](O)[C@@H]2O)n1")
5.25
>>> readout_value("O[C@@H]1[C@H](O)[C@@H](CCl)O[C@H]1n1cnc2c(N[C@@H]3CCOC3)nc(Cl)nc21")
5.96
>>> readout_value("Cc1cc(C)n(C[C@H]2O[C@@H](n3cnc4c(N[C@@H]5CCOC5)nc(Cl)nc43)[C@H](O)[C@@H]2O)n1")
6.00
>>> readout_value("Cc1cc(C)n(C[C@H]2O[C@@H](n3cnc4c(NC5CCCC5)nc(Cl)nc43)[C@H](O)[C@@H]2O)n1")
6.46
>>> readout_value("Cc1cc(C)n(C[C@H]2O[C@@H](n3cnc4c(Nc5ccc(Cl)cc5F)ncnc43)[C@H](O)[C@@H]2O)n1")
5.56
>>> readout_value("Cc1cc(C)n(C[C@H]2O[C@@H](n3cnc4c(NC5CC6CCC5C6)nc(Cl)nc43)[C@H](O)[C@@H]2O)n1 (mixture of isomers)")
5.84
>>> readout_value("O[C@@H]1[C@H](O)[C@@H](CCl)O[C@H]1n1cnc2c(Nc3ccc(Cl)cc3F)ncnc21")
6.87
>>> readout_value("Cc1cc(C)n(C[C@H]2O[C@@H](n3cnc4c(NC5CC6CCC5C6)ncnc43)[C@H](O)[C@@H]2O)n1 (mixture of isomers)")
5.26
>>> readout_value("O[C@@H]1[C@H](O)[C@@H](CCl)O[C@H]1n1cnc2c(Nc3ccc(Cl)cc3F)nc(Cl)nc21")
6.63
>>> readout_value("Cc1cc(C)n(C[C@H]2O[C@@H](n3cnc4c(N[C@@H]5CCOC5)ncnc43)[C@H](O)[C@@H]2O)n1")
5.28

====

Biological target: Adenosine receptor A2a (Homo sapiens)
Sequence (P29274 whole entry): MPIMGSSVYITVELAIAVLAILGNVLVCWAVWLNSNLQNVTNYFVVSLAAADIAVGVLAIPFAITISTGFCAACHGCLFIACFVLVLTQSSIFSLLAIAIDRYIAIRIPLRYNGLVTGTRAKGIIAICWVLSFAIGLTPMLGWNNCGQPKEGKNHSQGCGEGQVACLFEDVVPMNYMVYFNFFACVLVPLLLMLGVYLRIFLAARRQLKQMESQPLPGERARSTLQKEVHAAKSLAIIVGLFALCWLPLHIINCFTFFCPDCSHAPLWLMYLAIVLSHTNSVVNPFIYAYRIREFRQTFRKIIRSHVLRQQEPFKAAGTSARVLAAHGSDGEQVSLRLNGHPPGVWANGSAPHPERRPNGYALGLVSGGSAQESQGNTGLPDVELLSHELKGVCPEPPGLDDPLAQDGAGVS
Assay: Displacement of [3H]NECA from recombinant human adenosine A2A receptor expressed in CHO cell membranes after 3 hrs
Ki values, listed per item
result type: Ki (µM)

>>> readout_value("O[C@@H]1[C@H](O)[C@@H](CCl)O[C@H]1n1cnc2c(N[C@@H]3CCOC3)ncnc21")
10.4
>>> readout_value("Cc1cc(C)n(C[C@H]2O[C@@H](n3cnc4c(NC5CCCC5)ncnc43)[C@H](O)[C@@H]2O)n1")
14.5
>>> readout_value("O[C@@H]1[C@H](O)[C@@H](CCl)O[C@H]1n1cnc2c(Nc3ccc(Cl)cc3F)ncnc21")
1.36
>>> readout_value("Cc1cc(C)n(C[C@H]2O[C@@H](n3cnc4c(NC5CCCC5)nc(Cl)nc43)[C@H](O)[C@@H]2O)n1")
10.2

====

Target: UniProt:P30542
Experiment: Displacement of [3H]CCPA from recombinant human adenosine A1 receptor expressed in CHO cell membranes after 3 hrs
result type: Ki (nM)

>>> readout_value("O[C@@H]1[C@H](O)[C@@H](CCl)O[C@H]1n1cnc2c(Nc3ccc(Cl)cc3F)nc(Cl)nc21")
11.2
>>> readout_value("O[C@@H]1[C@H](O)[C@@H](CCl)O[C@H]1n1cnc2c(N[C@@H]3CCOC3)ncnc21")
1.89
>>> readout_value("Cc1cc(C)n(C[C@H]2O[C@@H](n3cnc4c(NC5CC6CCC5C6)ncnc43)[C@H](O)[C@@H]2O)n1 (mixture of isomers)")
25.6
>>> readout_value("Cc1cc(C)n(C[C@H]2O[C@@H](n3cnc4c(N[C@@H]5CCOC5)nc(Cl)nc43)[C@H](O)[C@@H]2O)n1")
438
>>> readout_value("Cc1cc(C)n(C[C@H]2O[C@@H](n3cnc4c(NC5CCCC5)ncnc43)[C@H](O)[C@@H]2O)n1")
115
>>> readout_value("Cc1cc(C)n(C[C@H]2O[C@@H](n3cnc4c(N[C@@H]5CCOC5)ncnc43)[C@H](O)[C@@H]2O)n1")
491
>>> readout_value("O[C@@H]1[C@H](O)[C@@H](CCl)O[C@H]1n1cnc2c(Nc3ccc(Cl)cc3F)ncnc21")
1.87
>>> readout_value("Cc1cc(C)n(C[C@H]2O[C@@H](n3cnc4c(Nc5ccc(Cl)cc5F)ncnc43)[C@H](O)[C@@H]2O)n1")
158
>>> readout_value("Cc1cc(C)n(C[C@H]2O[C@@H](n3cnc4c(NC5CC6CCC5C6)nc(Cl)nc43)[C@H](O)[C@@H]2O)n1 (mixture of isomers)")
4.35
>>> readout_value("Cc1cc(C)n(C[C@H]2O[C@@H](n3cnc4c(Nc5ccc(Cl)cc5F)nc(Cl)nc43)[C@H](O)[C@@H]2O)n1")
139
>>> readout_value("Cc1cc(C)n(C[C@H]2O[C@@H](n3cnc4c(NC5CCCC5)nc(Cl)nc43)[C@H](O)[C@@H]2O)n1")
18.6
>>> readout_value("O[C@@H]1[C@H](O)[C@@H](CCl)O[C@H]1n1cnc2c(N[C@@H]3CCOC3)nc(Cl)nc21")
3.5

====

Target: Adenosine receptors; A1 & A3 (Homo sapiens) (UniProt P30542+P0DMS8)
Assay: Selectivity ratio of Ki for recombinant human adenosine A3 receptor to Ki for recombinant human adenosine A1 receptor
result type: Ratio Ki

>>> readout_value("O[C@@H]1[C@H](O)[C@@H](CCl)O[C@H]1n1cnc2c(N[C@@H]3CCOC3)ncnc21")
635
>>> readout_value("Cc1cc(C)n(C[C@H]2O[C@@H](n3cnc4c(Nc5ccc(Cl)cc5F)ncnc43)[C@H](O)[C@@H]2O)n1")
17
>>> readout_value("Cc1cc(C)n(C[C@H]2O[C@@H](n3cnc4c(NC5CCCC5)nc(Cl)nc43)[C@H](O)[C@@H]2O)n1")
18
>>> readout_value("Cc1cc(C)n(C[C@H]2O[C@@H](n3cnc4c(NC5CC6CCC5C6)ncnc43)[C@H](O)[C@@H]2O)n1 (mixture of isomers)")
213

====

Target: Adenosine receptor A1 (Homo sapiens, UniProt P30542)
Sequence (P30542 whole entry): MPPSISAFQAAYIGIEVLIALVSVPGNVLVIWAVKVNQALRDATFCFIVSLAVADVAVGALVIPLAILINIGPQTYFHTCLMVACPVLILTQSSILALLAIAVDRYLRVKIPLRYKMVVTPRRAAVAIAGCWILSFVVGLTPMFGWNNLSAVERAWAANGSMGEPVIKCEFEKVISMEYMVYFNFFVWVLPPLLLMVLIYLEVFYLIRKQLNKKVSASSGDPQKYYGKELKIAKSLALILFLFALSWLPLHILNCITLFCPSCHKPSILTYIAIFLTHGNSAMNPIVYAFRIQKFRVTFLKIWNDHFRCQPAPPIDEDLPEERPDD
Test: Agonist activity at recombinant human adenosine A1 receptor expressed in CHO cell membranes assessed as inhibition of forskolin-stimulated adenylyl cyclase activity in presence of […]
pEC50: −log10 of the molar value.
Label condition not met if pEC50 falls below 7; label condition met in every other case.

>>> cat("Cc1cc(C)n(C[C@H]2O[C@@H](n3cnc4c(Nc5ccc(Cl)cc5F)nc(Cl)nc43)[C@H](O)[C@@H]2O)n1")
"condition not met"
>>> cat("O[C@@H]1[C@H](O)[C@@H](CCl)O[C@H]1n1cnc2c(Nc3ccc(Cl)cc3F)ncnc21")
"condition met"
>>> cat("O[C@@H]1[C@H](O)[C@@H](CCl)O[C@H]1n1cnc2c(N[C@@H]3CCOC3)nc(Cl)nc21")
"condition met"
>>> cat("Cc1cc(C)n(C[C@H]2O[C@@H](n3cnc4c(NC5CCCC5)nc(Cl)nc43)[C@H](O)[C@@H]2O)n1")
"condition not met"
